Assay procedure: inhibitors of VEEV TC-83 cytopathic effect, confirmation, Vero cells (AID 588727)
Protocol conditions: VEEV TC-83 cytopathic effect inhibition, at 20 µM; hits give high values unless noted
The campaign covered roughly 350,000 compounds. About 450 (0.13%) were called active. The list is a sample of the results. Entries with a potency or affinity are not part of this list.
The entries below come with measured inhibition values attached.

Guide cases for inhibition, answers given:
compound=CCOc1ccccc1CNC(=O)c1cc2occc2n1C assay_value="3.56% (inactive)"
compound=CC1(C)Cc2cccc(OCC(=O)Nc3nccs3)c2O1 assay_value="7.27% (inactive)"
compound=Cc1ccc(CSCC(=O)Nc2ccccc2F)cc1 assay_value="1.09% (inactive)"
compound=O=C(Nc1ccc(F)c([N+](=O)[O-])c1)c1cccs1 assay_value="0.78% (inactive)"
compound="CC1=C(C(=O)NC2CCCc3c2cnn3-c2cccc(C)c2C)OCCO1 (stereo not drawn)" assay_value="1.75% (inactive)"
compound=Cc1ccc(C)c(NC(=O)c2ccc3ccccc3n2)c1 assay_value="4.34% (inactive)"

(Q) Recorded inhibition for CC(=O)O[C@@H]1CC[C@]2(C)C3CC[C@@]4(C)C(C[C@@H](O)[C@@H]4O)C3[C@@H](OC(C)=O)C[C@H]2C1 (stereo partly drawn) , please?
(A) 0.36% (inactive)

(Q) Recorded inhibition for `COc1ccc(N2CCN(CCCn3c(=S)[nH]c4ncccc4c3=O)CC2)cc1` , please?
(A) 26.7% (inactive)

(Q) Recorded inhibition for `CN(CC(=O)Nc1ccc(F)cc1)C(=O)COC(=O)/C=C/c1ccccc1[N+](=O)[O-]` , please?
(A) 5.33% (inactive)

(Q) Recorded inhibition for `CN(C)c1ccc(NC2=C(Cl)C(=O)c3ccccc3C2=O)cc1` , please?
(A) 2.81% (inactive)

(Q) Recorded inhibition for `O=C(O)c1ccc(Sc2ccccn2)c([N+](=O)[O-])c1` , please?
(A) 0.39% (inactive)

(Q) Recorded inhibition for COc1cc(C(=O)N/N=C/C23CC[C@@H](O)CC2(O)CC[C@@H]2[C@@H]3CCC3(C)C(C4=CC(=O)OC4)CCC23O)ccc1O (stereo partly drawn) , please?
(A) 7% (inactive)

(Q) Recorded inhibition for COc1ccc(C(=O)NC2CCCc3c2cnn3-c2cc(F)cc(F)c2)c(OC)n1 (stereo not drawn) , please?
(A) 0.41% (inactive)

(Q) Recorded inhibition for COc1cccc(N2C(=O)C3CCCN3C2c2cccs2)c1 (stereo not drawn) , please?
(A) 1.22% (inactive)

(Q) Recorded inhibition for `Fc1ccc(NC(=S)NCc2ccc3c(c2)OCO3)cc1` , please?
(A) 1.24% (inactive)

(Q) Recorded inhibition for `O=[N+]([O-])c1ccc(-[n+]2c(-c3ccccc3)cc(-c3ccccc3)cc2-c2ccccc2)cc1` , please?
(A) 2.23% (inactive)

(Q) Recorded inhibition for CCC(C)[C@@H]1NC(=O)N(CCCN2CCCC2=O)C1=O (stereo partly drawn) , please?
(A) 2.56% (inactive)

(Q) Recorded inhibition for `Cc1sc(NC(=S)NC(=O)c2ccccc2)c(C#N)c1C` , please?
(A) 1.72% (inactive)

(Q) Recorded inhibition for COc1ccc(C2CN=NC2C(=O)c2ccccc2)cc1 (stereo not drawn) , please?
(A) 0.98% (inactive)

(Q) Recorded inhibition for `O=C(CSc1nnc(-c2ccccc2Br)o1)N1CCOCC1` , please?
(A) 0.96% (inactive)

(Q) Recorded inhibition for CC(=O)OCC(=O)C1(O)CCC2C3CC(C)C4=CC(=O)CCC4(C)C3C(O)CC21C (stereo not drawn) , please?
(A) 2.53% (inactive)

(Q) Recorded inhibition for `Cc1ccc(CNC(=O)c2cc3c(=O)n(C)c4ccccc4c3n2C)cc1` , please?
(A) 0.2% (inactive)
